# assay-conditions: in ethyl acetate, 326.85 K
quantity-measured: solubility (mole fraction)
Please state the value as a number alone, without comment.

Query: solubility (mole fraction) for NC(=O)N1c2ccccc2C=Cc2ccccc21 ?
Response: 0.00959

---

# assay-conditions: in cyclohexylamine, 302.35 K
quantity-measured: solubility (mole fraction)
Please state the value as a number alone, without comment.

Query: solubility (mole fraction) for NC(=O)N1c2ccccc2C=Cc2ccccc21 ?
Response: 0.0193

---

# assay-conditions: in ethyl acetate, 346.65 K
quantity-measured: solubility (mole fraction)

Query: solubility (mole fraction) for NC(=O)N1c2ccccc2C=Cc2ccccc21 ?
Response: 0.0142

---

# assay-conditions: in methyl acetate, 311.55 K
quantity-measured: solubility (mole fraction)
Please state the value as a number alone, without comment.

Query: solubility (mole fraction) for NC(=O)N1c2ccccc2C=Cc2ccccc21 ?
Response: 0.0109
